TARGET ENTITY: AR (Homo sapiens)
Sequence (P10275 whole entry): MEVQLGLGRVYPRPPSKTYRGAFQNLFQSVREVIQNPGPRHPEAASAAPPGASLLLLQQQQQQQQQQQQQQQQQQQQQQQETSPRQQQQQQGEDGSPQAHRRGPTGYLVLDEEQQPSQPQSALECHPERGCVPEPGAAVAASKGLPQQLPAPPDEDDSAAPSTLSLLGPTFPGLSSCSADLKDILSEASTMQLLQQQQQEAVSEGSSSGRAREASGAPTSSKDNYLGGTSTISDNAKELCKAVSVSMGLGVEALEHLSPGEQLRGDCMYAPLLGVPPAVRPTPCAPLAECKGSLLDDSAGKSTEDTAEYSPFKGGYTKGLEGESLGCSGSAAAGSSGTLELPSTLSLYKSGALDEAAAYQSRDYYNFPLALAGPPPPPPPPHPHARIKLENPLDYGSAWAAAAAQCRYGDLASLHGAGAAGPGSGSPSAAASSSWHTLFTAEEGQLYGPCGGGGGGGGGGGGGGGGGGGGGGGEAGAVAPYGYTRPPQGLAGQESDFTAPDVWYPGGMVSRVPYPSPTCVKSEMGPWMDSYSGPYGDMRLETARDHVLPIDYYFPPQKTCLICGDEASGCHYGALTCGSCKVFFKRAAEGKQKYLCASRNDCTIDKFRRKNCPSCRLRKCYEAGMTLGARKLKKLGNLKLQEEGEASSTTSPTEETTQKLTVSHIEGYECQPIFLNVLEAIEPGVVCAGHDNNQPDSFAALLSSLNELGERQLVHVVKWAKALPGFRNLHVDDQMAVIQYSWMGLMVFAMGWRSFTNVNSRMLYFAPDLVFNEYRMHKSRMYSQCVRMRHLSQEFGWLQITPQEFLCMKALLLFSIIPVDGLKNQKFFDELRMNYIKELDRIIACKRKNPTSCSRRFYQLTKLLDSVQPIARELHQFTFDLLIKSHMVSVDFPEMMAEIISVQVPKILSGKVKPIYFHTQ
ASSAY: cell-based
Type: binding
MEASUREMENT CONDITIONS: 0.3 nM [3H]-R1881, 3 h, 37 °C; read-out: IC50 of competition with [3H]-R1881 for AR binding
Counter-ions that a name gives are not always drawn.
PROPERTY LABEL: pIC50
Worth noting: pIC50 values are minus log10 of concentrations stated in mol/L.

GET /values?readout=pIC50&item= Cc1nccc2c1[nH]c1cc(O)ccc12 [harmol hydrochloride, Harmol hydrochloride monohydrate] 6.27
